Let's look at some molecules and their measured zone of inhibition at 100 µg/disc.
System: Aspergillus niger
Test: Antifungal activity against Aspergillus niger at 100 ug after 48 hrs by agar disc-diffusion method
Assay type: functional
Conditions: read-out: IZ

>  <molecule>
Cc1ccc([C@H]2CNN=C2S(=O)(=O)Cc2nnc(S)n2N)cc1

>  <units.label>
mm

>  <zone of inhibition at 100 µg/disc>
35

$$$$
>  <molecule>
CC(=O)N1CCN(c2ccc(OCC3COC(Cn4ccnc4)(c4ccc(Cl)cc4Cl)O3)cc2)CC1 (stereo not given) [KETOCONAZOLE]

>  <units.label>
mm

>  <zone of inhibition at 100 µg/disc>
36

$$$$
>  <molecule>
O=S(=O)(Cc1nnc(S)s1)C1=NNC[C@@H]1c1ccc(Cl)cc1

>  <units.label>
mm

>  <zone of inhibition at 100 µg/disc>
26

$$$$
>  <molecule>
Cc1ccc([C@H]2CNN=C2S(=O)(=O)Cc2nnc(S)s2)cc1

>  <units.label>
mm

>  <zone of inhibition at 100 µg/disc>
22

$$$$
>  <molecule>
O=S(=O)(Cc1nnc(S)s1)C1=NNC[C@@H]1c1ccccc1

>  <units.label>
mm

>  <zone of inhibition at 100 µg/disc>
25

$$$$
